- measured target: Mcl-1 (Homo sapiens, UniProt Q07820)
- Sequence (Q07820 whole entry): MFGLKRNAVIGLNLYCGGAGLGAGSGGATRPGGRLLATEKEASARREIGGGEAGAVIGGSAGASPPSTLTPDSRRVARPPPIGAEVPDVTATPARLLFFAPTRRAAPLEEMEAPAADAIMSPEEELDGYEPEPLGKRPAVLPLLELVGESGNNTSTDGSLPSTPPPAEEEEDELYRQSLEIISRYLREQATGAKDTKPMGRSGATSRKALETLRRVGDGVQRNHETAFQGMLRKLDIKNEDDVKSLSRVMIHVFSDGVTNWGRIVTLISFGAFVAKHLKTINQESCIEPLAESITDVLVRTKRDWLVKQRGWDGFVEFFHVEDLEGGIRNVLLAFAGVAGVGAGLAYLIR
- protocol: FP based binding assay to Mcl-1 (Bid BH3 peptide probe)
- test parameters: Binding affinity of Mcl-1 inhibitors using FP based assay, Table 1
pKi: −log10 of the molar value.
Known pKi of a selection of compounds
assay readout: pKi

| compound | reported relation | observed result |
| --- | --- | --- |
| O=C(O)c1cc(SCCc2ccccc2)ccc1NS(=O)(=O)N1CCN(c2ccccc2)CC1 [Compound 396] | = | 6.70 |
| O=C(O)c1cc(SCCc2ccccc2)ccc1NS(=O)(=O)c1ccc(Oc2ccccc2)cc1 [Compound 376] | = | 7.36 |
| O=C(CCSc1ccc(NS(=O)(=O)c2ccccc2)c(C(=O)O)c1)Nc1ccccc1 [Compound 410] | = | 6.63 |
| CC(C)c1cc(NS(=O)(=O)c2ccc3ccccc3c2)c(C(=O)O)cc1SCCc1ccccc1 [Compound 478] | = | 7.15 |
| O=C(O)c1cc(SCCc2ccccc2)ccc1NS(=O)(=O)c1ccccc1-c1ccccc1 [Compound 458] | = | 7.10 |
| O=C(O)c1ccccc1NS(=O)(=O)c1ccc2ccccc2c1 [Compound 453] | < | 5.70 |
| O=C(O)c1cc(SCCc2ccccc2)ccc1NS(=O)(=O)c1ccc(C2CCCCC2)cc1 [Compound 418] | = | 7.51 |
| O=C(O)c1cc(SCCc2ccccc2)ccc1NS(=O)(=O)c1ccccc1Br [Compound 386] | = | 6.42 |
| O=C(CCSc1ccc(NS(=O)(=O)N2CCN(c3ccccc3)CC2)c(C(=O)O)c1)Nc1ccccc1 [Compound 429] | = | 5.65 |
| Cc1cccc(-c2cc(NS(=O)(=O)N3CCN(c4ccc(C(C)(C)C)cc4)CC3)c(C(=O)O)cc2SCCC(=O)Nc2ccccc2)c1 [Compound 479] | = | 7.18 |
| CC(C)c1cc(NS(=O)(=O)c2ccc(Oc3ccccc3)cc2)c(C(=O)O)cc1SCCc1ccccc1 [Compound 476] | = | 7.46 |
| O=C(CCc1ccccc1)Nc1ccc(SCCc2ccccc2)cc1C(=O)O [Compound 454] | = | 6.06 |
| O=C(O)c1ccccc1NS(=O)(=O)c1ccccc1 [Compound 455, 2-(phenylsulfonamido)benzoic acid] | < | 5.70 |
| O=C(O)c1ccccc1NS(=O)(=O)N1CCN(c2ccccc2)CC1 [Compound 460] | < | 5.70 |
| O=C(O)c1cc(SCc2ccccc2)ccc1NS(=O)(=O)N1CCN(c2ccccc2)CC1 [Compound 456] | = | 6.41 |
| COC(=O)c1cc(-c2ccc(COc3cccc(C(F)(F)F)c3)cc2)c(C(C)C)cc1NS(=O)(=O)c1ccc(Oc2ccc(F)cc2)cc1 [Compound 481] | < | 5.70 |
